systemName: mammalian target of rapamycin (mTOR) (Homo sapiens, UniProt P42345)
testDescription: Invitrogen Z'-LYTE kinase assay, five concentrations
Format: biochemical
readoutKind: IC50 (µM)
Report the value in µM with no unit label.

Query `C/C=C(/C=O)[C@@H](CC=O)CC(=O)OCCc1ccc(O)cc1` yields IC50 of 0.708
